Origin of the recorded values: ChEMBL document CHEMBL5058577

Below, each entry is listed with its recorded Population Membrane Permeable-Phenotype (%).
- Tested on: U2OS
- Method Description: Multiplex assay against U2OS
- Assay type: toxicity, cell-based
- Cond: human, 12 h, 1 µM, compound concentration 1 uM, replicate 2

Below: 6 compounds and their reported Population Membrane Permeable-Phenotype (%).
1) N[C@@]1(C(=O)O)CO[C@H]2[C@H](C(=O)O)[C@H]21 [LY-379268]    8%
2) Cc1ccc(/C(=C\CN2CCCC2)c2ccccn2)cc1 [TRIPROLIDINE]    6%
3) CCCN1CCC[C@@H]2Cc3n[nH]cc3C[C@H]21.Cl [QUINPIROLE HYDROCHLORIDE]    2%
4) c1cc(OCCCN2CCCCC2)ccc1CN1CCCCC1 [JNJ-5207852]    7%
5) C[C@@H]1C[C@H]2[C@@H]3CCC4=CC(=O)C=C[C@]4(C)[C@@]3(F)[C@@H](O)C[C@]2(C)[C@@]1(O)C(=O)CO [DEXAMETHASONE]    4%
6) O=C(NCCO)c1cccc(-c2cc(Nc3ccc(OC(F)(F)F)cc3)ncn2)c1    4%

(Q) Any idea what its Population Membrane Permeable-Phenotype (%) is? The compound is CN(C)c1ccnc2sc3c(=O)n(N4CCCCCC4)cnc3c12
(A) 6%

(Q) Any idea what its Population Membrane Permeable-Phenotype (%) is? The compound is CC1(COc2ccc3c(c2)ncn3-c2ccc3cccc(N4CCC(N)CC4)c3n2)COC1 [CRENOLANIB]
(A) 82%

(Q) Any idea what its Population Membrane Permeable-Phenotype (%) is? The compound is CN(C)CCCc1cc(C(=O)Nc2ccc(-c3ccncc3)cc2)ccc1O.Cl.Cl
(A) 2%

(Q) Any idea what its Population Membrane Permeable-Phenotype (%) is? The compound is CCCC(CCC)C(=O)O [VALPROIC ACID]
(A) 8%

====

- System: U2OS
- Method Description: Multiplex assay against U2OS
- Assay type: toxicity, cell-based
- Cond: human, 24 h, 1 µM, compound concentration 1 uM, replicate 1
Below, each entry is listed with its recorded Population Normal (%).

Below: 8 compounds and their reported Population Normal (%).
1. O=C1COc2nccc(-c3ccccc3F)c2CN1Cc1cc(C(F)(F)F)cc(C(F)(F)F)c1    96%
2. Oc1c(CN2CCN(c3ccccn3)CC2)cc(Cl)c2cccnc12    98%
3. O=C(O)Cc1ccccc1Nc1c(Cl)cccc1Cl    95%
4. COc1cc(C(=O)N(CCCc2ccccc2)Cc2ccc(CC(=O)O)cc2)cc(OC)c1C    97%
5. C[C@H]1[C@H]2CC[C@H]3[C@@H]4CC=C5C[C@@H](N(C)C)CC[C@]5(C)[C@H]4CC[C@]23CN1C    97%
6. CC1(COc2ccc3c(c2)ncn3-c2ccc3cccc(N4CCC(N)CC4)c3n2)COC1    90%
7. O=C(NCC(=O)N1CC[C@H](N[C@H]2CC[C@@](O)(c3ccc(-c4ncccn4)cn3)CC2)C1)c1cccc(C(F)(F)F)c1    98%
8. CCNC1(C(N)=O)CCN(c2ncnc3c2nc(-c2ccccc2Cl)n3-c2ccc(Cl)cc2)CC1    96%

Now for another entry.
(Q) Any idea what its Population Normal (%) is? The compound is CCCC(CCC)C(=O)O
(A) 93%
